The reported measurements were obtained from PubChem BioAssay (NCI).

TGI reference
# Tested on: SN12C renal
# Assay Remarks: NCI tumour cell line growth inhibition, 48 h
The answer is to be given in µM; state only the numeric part.

Qu. Answer with the recorded TGI for the compound listed here: "CN(C)CCNC(=O)c1cccc2c1nc(-c1ccccc1)c1ccccc12"
Ans. 15.2

Qu. Answer with the recorded TGI for the compound listed here: COc1ccc(/C=C2\CCC(CNc3ccc(OC)cc3)C2=O)cc1 (stereo not given)
Ans. 33.1

---

TGI reference
# System: UO-31 renal
# Assay Remarks: NCI tumour cell line growth inhibition, 48 h
Where a SMILES comes first, the peptide text is derived from it. The star is where a group is joined. ONb = O=[N+]([O-])c1ccc(CO*)cc1; Boc = CC(C)(C)OC(=O)*

Nc1nc(Cl)cc(NCCC2(CO)CCC2)n1
> 100 µM
CCOC(=O)c1c(N2CCCC2)[nH]c(=O)c(C(c2ccco2)c2c(O)c(C(=O)OCC)c(N3CCCC3)[nH]c2=O)c1O
> 100 µM

Qu. Answer with the recorded TGI for the compound listed here: CC(C)CC(NC(=O)OC(C)(C)C)C(=O)NC(CCC(=O)OCc1ccc([N+](=O)[O-])cc1)C(=O)OCc1ccc([N+](=O)[O-])cc1 (stereo not drawn) (Boc-Leu-Glu(ONb)-ONb; configuration not given here)
Ans. > 100 µM

Qu. Answer with the recorded TGI for the compound listed here: "CCCCCCCCCCCCCC[n+]1ccc2c(C)c3c(c(C)c2c1)c1cc(O)ccc1n3CC"
Ans. 4.57 µM

Qu. Answer with the recorded TGI for the compound listed here: "CC(C)[Si](OC1=CCC[C@H]2NC(=O)[C@@H](Cc3ccccc3)[C@@]12C)(C(C)C)C(C)C"
Ans. 22.3 µM

Qu. Answer with the recorded TGI for the compound listed here: "CCCCCCCCCCCCCC[S+](C)C"
Ans. > 10 µM

Qu. Answer with the recorded TGI for the compound listed here: COc1ccc(OC)c(CC2CCc3nc(N)nc(N)c3C2)c1 (centres undefined)
Ans. > 75.4 µM

Qu. Answer with the recorded TGI for the compound listed here: "CCCCN1C(=O)c2c(-c3sccc3N)sc(-c3sccc3N)c2C1=O"
Ans. > 51 µM

Qu. Answer with the recorded TGI for the compound listed here: "CCn1cc(C(=O)O)c(=O)c2cc3c(cc21)S(=O)(=O)CC3"
Ans. > 100 µM
